B1: RAB40B (parent)
chain: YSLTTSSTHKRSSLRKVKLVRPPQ

# Variants of: B1
# ASSAY_OVERVIEW: protein stability index of a GFP-peptide fusion (GPS, HEK-293T) (PSI 1-6); higher = more stable;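 also: lentivirally expressed fusions sorted by FACS into six bins by GFP to DsRed ratio, PSI derived from sequencing read proportions per bin multiplied by bin number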
# STUDY_CONDITIONS: c terminus: a fixed tail appended
For each of the variants below, state its protein stability index.

Please report the measured protein stability index for `K16N` 3.19

Kindly indicate its recorded protein stability index. Item: `L3V` 3.17

Provide only the value of recorded protein stability index for `P22Y` 2.84

Return value of protein stability index for input `S2V` , no commentary. 2.38

Please look at this variant and report its protein stability index: `T8W` 2.49

Give recorded protein stability index. `V17R` 4.01

Quick one: give measured protein stability index for `S13C` 3.01

Supply reported protein stability index belonging to this variant: `R11Y` 2.51

Query protein stability index for `Q24N` 2.96

Give a short answer stating reported protein stability index for `V20H` . 2.92

Supply recorded protein stability index for `T8S` here. 2.89

Look up and report measured protein stability index for this entry: `P23I` 2.82

Answer with the recorded protein stability index for the variant listed here: `P23F` 2.6

State its protein stability index for this variant: `K16R` 2.99

For the variant `L3Y` , report protein stability index. 2.24

Using known records, supply protein stability index for `P23T` 3.62

Please give the documented protein stability index of `T4A` 3.06

Given `L14C` , respond with its protein stability index. 2.6

Identify protein stability index associated with the variant `T4D` 3.85

Kindly indicate its recorded protein stability index. Item: `S12K` 3.83

Identify measured protein stability index associated with `S2F` 1.82

Quote protein stability index reported for `K16M` please. 2.35
